B1: Intersectin-1, residues 909 to 971; numbered along this chain, Q15811 (parent)
chain: QGEKVEGLQAQALYPWRAKKDNHLNFNKNDVITVLEQQDMWWFGEVQGQKGWFPKSYVKLISG

Variants of: B1
Test: abundance fitness (aPCA) (normalised: wild type 0, dead -1); higher = more abundant; growth selection in yeast, the domain comes from the species named
Details: Homo sapiens
Class Satisfied: abundance fitness at least -0.09. Class Not satisfied: abundance fitness below -0.09.

Inquiry: Does abundance fitness meet or surpass -0.09 for QGEKVEGLQAQALYPWRAKKDNHLNFNKNDVITVLEQQDMWWFGEVQKQKGWFPKSYVKLISG [G48K] ?
Reply text: Satisfied

Inquiry: Does abundance fitness meet or surpass -0.09 for QGEKVEGLQAMALYPWRAKKDNHLNFNKNDVITVLEQQDMWWFGEVQGQKGWFPKSYVKLISG [Q11M] ?
Reply text: Not satisfied

Inquiry: Does abundance fitness meet or surpass -0.09 for QGEKVEGLQAQALYPWRAKKVNHLNFNKNDVITVLEQQDMWWFGEVQGQKGWFPKSYVKLISG [D21V] ?
Reply text: Satisfied

Inquiry: Does abundance fitness meet or surpass -0.09 for QGEKVEGDQAQALYPWRAKKDNHLNFNKNDVITVLEQQDMWWFGEVQGQKGWFPKSYVKLISG [L8D] ?
Reply text: Not satisfied

Inquiry: Does abundance fitness meet or surpass -0.09 for QGEKVEGLQAQALYPWRAKKDNHLNFNKNDVITRLEQQDMWWFGEVQGQKGWFPKSYVKLISG [V34R] ?
Reply text: Not satisfied

Inquiry: Does abundance fitness meet or surpass -0.09 for QGEKVEGLQAQALYPWRAKKDNHLNFNKNDYITVLEQQDMWWFGEVQGQKGWFPKSYVKLISG [V31Y] ?
Reply text: Satisfied

Inquiry: Does abundance fitness meet or surpass -0.09 for QGEKVEGLQAQALYPWRRKKDNHLNFNKNDVITVLEQQDMWWFGEVQGQKGWFPKSYVKLISG [A18R] ?
Reply text: Not satisfied

Inquiry: Does abundance fitness meet or surpass -0.09 for QGEKVEGEQAQALYPWRAKKDNHLNFNKNDVITVLEQQDMWWFGEVQGQKGWFPKSYVKLISG [L8E] ?
Reply text: Satisfied

Inquiry: Does abundance fitness meet or surpass -0.09 for QGEKVEGLQAQALYPWRAKKDNHLNFNKNDVITVLEQQDMWWFGEVQGQKGWFPKSCVKLISG [Y57C] ?
Reply text: Not satisfied

Inquiry: Does abundance fitness meet or surpass -0.09 for QGEKVEGLQAQALYPWRAKKSNHLNFNKNDVITVLEQQDMWWFGEVQGQKGWFPKSYVKLISG [D21S] ?
Reply text: Satisfied

Inquiry: Does abundance fitness meet or surpass -0.09 for QGEKVYGLQAQALYPWRAKKDNHLNFNKNDVITVLEQQDMWWFGEVQGQKGWFPKSYVKLISG [E6Y] ?
Reply text: Not satisfied

Inquiry: Does abundance fitness meet or surpass -0.09 for QGEVVEGLQAQALYPWRAKKDNHLNFNKNDVITVLEQQDMWWFGEVQGQKGWFPKSYVKLISG [K4V] ?
Reply text: Not satisfied

Inquiry: Does abundance fitness meet or surpass -0.09 for QGEKVEGLQAQALYPWRAKKDNHLNFNNNDVITVLEQQDMWWFGEVQGQKGWFPKSYVKLISG [K28N] ?
Reply text: Not satisfied

Inquiry: Does abundance fitness meet or surpass -0.09 for QGEKVEGLQAQALYPWRAKKDNHLNFNKNDQITVLEQQDMWWFGEVQGQKGWFPKSYVKLISG [V31Q] ?
Reply text: Not satisfied

Inquiry: Does abundance fitness meet or surpass -0.09 for QSEKVEGLQAQALYPWRAKKDNHLNFNKNDVITVLEQQDMWWFGEVQGQKGWFPKSYVKLISG [G2S] ?
Reply text: Satisfied
